Listed here: items and their measured fraction ligated.
B1: F1*; the commonest letter at each place (parent)
chain: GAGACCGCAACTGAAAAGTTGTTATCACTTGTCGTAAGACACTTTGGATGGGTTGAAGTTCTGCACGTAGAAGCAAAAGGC

variants of: B1; assay: fraction ligated after 30 min (ligated reads / total reads); higher = more ligase activity; details: with F1*sub RNA substrate (template-directed ligation), 42 °C
# print the numeric value only

- GAGACCGCAACTGAAAAGTTGTTATTACTTGTCGTAAGACACTTTGGAAGGGTTGAAGTTCTGCACGTAGAAGCAAAAGGC [C26T T49A]: 0.392
- GAGACCGCAACTGAAAAGTTGTTATCACTTGTCGTAAAACACTTTGGATTGGTTGAAGTTCTGCACGTAGAAGCAAAAGGC [G38A G50T]: 0.72
- GAGACCGCAACTGAAAAGTTGTTATCACTTGTCGTAATACACTTTGTATGGGTTGAAGTTCTGCACGTAGAAGCAAAAGGC [G38T G47T]: 0.139
- GAGACCGCAACTGAAAAGTTGTTATCACTTGTCGGAAGACACTTTGGTTGGGTTGAAGTTCTGCACGTAGAAGCAAAAGGC [T35G A48T]: 0.789
- GAGACCGCAACTGAAAAGTTGTTATCACTTGGCATAAGACACTTTGGATGGGTTGAAGTTCTGCACGTAGAAGCAAAAGGC [T32G G34A]: 0.83
- GAGACCGCAACTGAAAAGTTGTTATCACTTGTCGTAATACACTTTGGATTGGTTGAAGTTCTGCACGTAGAAGCAAAAGGC [G38T G50T]: 0.723
- GAGACCGCAACTGAAAAGTTGTTCTCACTTGTCGTAAGACATTTTGGATGGGTTGAAGTTCTGCACGTAGAAGCAAAAGGC [A24C C42T]: 0.779
- GAGACCGCAACTGAAAAGTTGTTATCAGTTGTCGTAAGACACTTTGGATAGGTTGAAGTTCTGCACGTAGAAGCAAAAGGC [C28G G50A]: 0.224

// field: fraction ligated; key: GAGACCGCAACTGAAAAGTTGTTATCACTTGTCGTAATACACTTCGGATGGGTTGAAGTTCTGCACGTAGAAGCAAAAGGC [G38T T45C] ; value = 0.627

// field: fraction ligated; key: GAGACCGCAACTGAAAAGTTGTTATCACTTGTCGTAAGACACATTGGATGGGTTGTAGTTCTGCACGTAGAAGCAAAAGGC [T43A A56T] ; value = 0.81

// field: fraction ligated; key: GAGACCGCAACTGAAAAGTTGTAATCACTTGTCGTAAGACACTTTGTATGGGTTGAAGTTCTGCACGTAGAAGCAAAAGGC [T23A G47T] ; value = 0.09

// field: fraction ligated; key: GAGACCGCAACTGAAAAGTTGTTATCACTCGTCGTAAGACCCTTTGGATGGGTTGAAGTTCTGCACGTAGAAGCAAAAGGC [T30C A41C] ; value = 0.752

// field: fraction ligated; key: GAGACCGCAACTGAAAAGTTGTTATCACTTGTCGTAACAAACTTTGGATGGGTTGAAGTTCTGCACGTAGAAGCAAAAGGC [G38C C40A] ; value = 0.811

// field: fraction ligated; key: GAGACCGCAACTGAAAAGTTGTTATCACGTGCCGTAAGACACTTTGGATGGGTTGAAGTTCTGCACGTAGAAGCAAAAGGC [T29G T32C] ; value = 0.809

// field: fraction ligated; key: GAGACCGCAACTGAAAAGTTGTTGTCAATTGTCGTAAGACACTTTGGATGGGTTGAAGTTCTGCACGTAGAAGCAAAAGGC [A24G C28A] ; value = 0.719

// field: fraction ligated; key: GAGACCGCAACTGAAAAGTTGTTACCACTTGTCGTAAGACACTTTGGATGGGTTGCAGTTCTGCACGTAGAAGCAAAAGGC [T25C A56C] ; value = 0.0931

// field: fraction ligated; key: GAGACCGCAACTGAAAAGTTGTTATCACTTGTCGTAAGACACTTTGTATGGGTTGCAGTTCTGCACGTAGAAGCAAAAGGC [G47T A56C] ; value = 0.0301

// field: fraction ligated; key: GAGACCGCAACTGAAAAGTTGTTATCACTTGTCGTAAGAGACTTTTGATGGGTTGAAGTTCTGCACGTAGAAGCAAAAGGC [C40G G46T] ; value = 0.793

// field: fraction ligated; key: GAGACCGCAACTGAAAAGTTGTAATCGCTTGTCGTAAGACACTTTGGATGGGTTGAAGTTCTGCACGTAGAAGCAAAAGGC [T23A A27G] ; value = 0.794
